TESTED_ON: PARP-1 (Homo sapiens, UniProt P09874)
Sequence (P09874 2-1014): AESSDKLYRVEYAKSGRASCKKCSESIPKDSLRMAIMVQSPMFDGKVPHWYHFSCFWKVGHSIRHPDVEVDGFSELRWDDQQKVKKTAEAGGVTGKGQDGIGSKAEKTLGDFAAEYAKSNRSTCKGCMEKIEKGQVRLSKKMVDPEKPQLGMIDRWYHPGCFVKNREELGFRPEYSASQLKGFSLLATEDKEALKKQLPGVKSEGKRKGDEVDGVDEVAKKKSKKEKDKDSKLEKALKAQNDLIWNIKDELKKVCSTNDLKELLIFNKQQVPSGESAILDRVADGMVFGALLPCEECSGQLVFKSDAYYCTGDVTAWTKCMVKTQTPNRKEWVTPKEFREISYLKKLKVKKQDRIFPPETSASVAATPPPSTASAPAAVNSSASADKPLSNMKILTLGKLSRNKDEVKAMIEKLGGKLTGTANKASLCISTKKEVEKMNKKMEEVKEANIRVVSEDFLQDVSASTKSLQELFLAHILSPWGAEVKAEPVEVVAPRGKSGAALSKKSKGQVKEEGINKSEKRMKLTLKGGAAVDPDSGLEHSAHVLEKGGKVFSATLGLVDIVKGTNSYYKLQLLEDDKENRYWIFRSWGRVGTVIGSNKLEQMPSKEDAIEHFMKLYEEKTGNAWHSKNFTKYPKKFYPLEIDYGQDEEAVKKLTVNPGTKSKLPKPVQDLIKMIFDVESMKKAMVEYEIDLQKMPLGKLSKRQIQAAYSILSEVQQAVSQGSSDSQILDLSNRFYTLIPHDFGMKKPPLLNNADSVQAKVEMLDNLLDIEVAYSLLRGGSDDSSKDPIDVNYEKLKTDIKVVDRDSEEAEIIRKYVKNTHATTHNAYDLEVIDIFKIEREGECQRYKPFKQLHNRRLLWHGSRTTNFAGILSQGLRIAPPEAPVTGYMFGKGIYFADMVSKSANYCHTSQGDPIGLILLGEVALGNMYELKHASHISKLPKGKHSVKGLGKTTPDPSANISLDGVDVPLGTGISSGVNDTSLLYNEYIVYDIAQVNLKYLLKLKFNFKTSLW
ASSAY_METRIC: IC50

Measured IC50 for this entry C/C=C(/C)C(=O)OC1=C(C(C)CCC=C(C)C)C(=O)C=C(C)C1=O (stereo not shown) [perezone angelate] on PARP-1 (Homo sapiens, UniProt P09874): 5.25 µM
